- Tested on: MS2 coat protein
- measurement.description: apparent KD of MS2 coat protein, switch ON state; designed switch direction (-1 OFF switch, 1 ON switch): -1; higher = weaker reporter binding
- experimental.context: FMN input: 0 or 200 uM; Eterna round: R93 (includes R88 designs)
readout.type: apparent KD of MS2 coat protein (nM)
Numbers only, in nM.

For the 2 sequences below, give their apparent KD of MS2 coat protein values.
1. UAAAGACAUGAGGAUCACCCAUGUGAGGAUAUCGGAGACAACAGAACAUCAAGUACAAUGAGAAGGCACAGAAA [JR_Exc001_Sub018]
2. AACAGUACAGGAUAUACAUGAGGAUCACCCAUGUGAAAAUUAAGUGGAAAACCACAGUGUAGAAGGGUACUGGA [Mat - Exclusion 3 - Eli mod - D53]

1: 40.6; 2: 47.5

For the 2 sequences below, give their apparent KD of MS2 coat protein values.
1. AAAAAGUGAGGAUAUUCGGAUAGGAAAACGAAAACCUAUCCGAAGAAGGCACAUGAGGAUCACCCAUGUGAGAA [67% Ecls-II - Early G + late G segment 4]
2. CCAAACGGAGGAUAUACAAAUUAAGGAAAAAAACGCGAAAAACAUGAGGAUCACCCAUGUAGAAGGCCGAAAAA [Ex 2 #2]

[26.5, 20.3]

For the 6 sequences below, give their apparent KD of MS2 coat protein values.
1. GAAAAACAUGAGGAUCACCCAUGUCAGGAUAUGUAGAAAAAGAAAAAAAGAAAAGAAAACAGAAGGGACAAAAG [Mat - Same state - Mayanna Mod - D105]
2. AACAUGUAAGGAUAUGCUGCUCGUCACGAAAGUGAUGAGUAGCAGAAGGUACAUGAGGAUCACCCAUGUAAAGA
3. AAUAAGUGAGGAUAUGCAAAUAAUAAAUAAAAUAAAAUAAAGCAGAAGGCACAUGAGGAUCACCCAUGUAAAUA [JR_Exc004_Sub001]
4. AUAAGAGCAGGAUAUACGUAUAUGAUGCCAGGACCGCGUCCACAUGAGGAUCACCCAUGUAGAAGGGCUUGAAA [Disoleve]
5. AAGGUACGAGGAUAUACAUAGAUACAGAUACAUGUAGACGUACAUGAGGAUCACCCAUGUAGAAGGCGUAUAUA [AJ 24]
6. ACCGAACAUGAGGAUCACCCAUGUGAGGAUAUAGACGCAAAUUAAACGCGUAACAAAACUAGAAGGCACUGGGC [Veais]

1: 32.6; 2: 49; 3: 34; 4: 35.7; 5: 46.8; 6: 27.6

====

Hi there, I'd appreciate the recorded apparent KD of MS2 coat protein for every entry that follows.
- Test system: MS2 coat protein
- measurement.description: apparent KD of MS2 coat protein; designed switch direction (-1 OFF switch, 1 ON switch): 1; higher = weaker reporter binding
- experimental.context: Eterna round: R95; input ligand: microRNA oligo, concentration not stated
Don't forget the unit after the value.

{"columns": ["entry.sequence", "apparent KD of MS2 coat protein"],
 "data": [
  ["GGUGAGAGAGUCAAGGAUAUGAAAGGAGAGACAUGAGGAUCACCCAUGUAAGAGAGAGAGGAGAGUUAGAAGGUGAAGAGAGUGG [Altered State 2-24 - Jieux - Same State 2] (puzzle: Same State 2)", "39.5 nM"],
  ["CGAUGAAACAAAGGAAGAAGAGUUGAAGUACAUGAGGAUCACCCAUGUCAGAGCUUUUUGCUCGUCAUGAACAGGAA [JR_SHM208a_Sub004] (puzzle: Sensor for hsa-mir-208a)", "24.4 nM"],
  ["AUUUAACAAGCUUUUUGCUCGUCUUAUAAACAUGAGGAUCACCCAUGUAAUAGCGUGAGAGUAAUUAUAUAAAUAAU [JMF 86] (puzzle: Sensor for hsa-mir-208a)", "43 nM"],
  ["GGAGCCGAUACUGAGGAUAUUCAUAUUAAAACAUGAGGAUCACCCAUGUAGGCCAGAAGGCCUUGGGAGAAGGCAGAUCGGCUCC [Biseusra - 4] (puzzle: Same State 2)", "301 nM"],
  ["UUAAGCCACGGGCAGGAUAUGUAUUAAUAUACAUGAGGAUCACCCAUGUGCAGGUGUAACACCUGACAGAAGGGCCAAUCGCGGC [Soondi - 5] (puzzle: Same State 2)", "177 nM"]
]}

For the 3 sequences below, give their apparent KD of MS2 coat protein values.
1. UUUGGGUGGCUGGAGGAUAUCCUUGUUGUUACAUGAGGAUCACCCAUGUGCCGCGCGGUUCGCGAGGAGAAGGCUGGCGGCCGUU (puzzle: Same State 2)
2. ACAAGCUUUUCUGUAUUGAAAGGUGGGAUACAUGAGGAUCACCCAUGUUUUUUUGUUUAUUUUUUUCCUCGUCUUAU [JR_SHM208A_Sub088] (puzzle: Sensor for hsa-mir-208a)
3. AAAACACAUGAGGAUCACCCAUGUACCAGGUACAUAGGAUAUCCAGGCGCCAGAUGGCGCGGAGAAGGAUGGAAAA [Xeveoned] (puzzle: Same State 1)

["169 nM", "37.8 nM", "162 nM"]
